Entry source: patent US11845793B2

molecular target: StrepII-tagged ROR1-extracellular domain (human, UniProt Q01973); assay: SPR (Biacore T200), purified mAb captured by anti-human Fc, ROR1-strep as analyte, 1:1 model
Sequence (Q01973 other isoform, or with tags, fused parts or gaps): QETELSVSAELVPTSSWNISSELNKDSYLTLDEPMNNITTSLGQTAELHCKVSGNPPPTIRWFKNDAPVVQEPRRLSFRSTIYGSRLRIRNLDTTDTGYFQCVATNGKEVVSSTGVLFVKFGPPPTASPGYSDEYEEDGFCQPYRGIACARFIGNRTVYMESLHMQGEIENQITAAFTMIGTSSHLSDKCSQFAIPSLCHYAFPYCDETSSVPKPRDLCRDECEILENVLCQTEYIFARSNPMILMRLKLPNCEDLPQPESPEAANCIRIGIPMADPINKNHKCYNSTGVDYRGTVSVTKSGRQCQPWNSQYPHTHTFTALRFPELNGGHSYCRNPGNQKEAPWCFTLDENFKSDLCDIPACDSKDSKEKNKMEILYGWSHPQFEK
Recorded Kd for the following binders
PARAMETER: Kd (nM)

INSERT INTO assay_data (binder, parameter, reading_unit, experimental_result) VALUES
  ('rbD4, humanized from R11 (antibody, V domains shown) VH: EVQLVESGGGLVQPGRSLRLSCTASGSDINDYPISWFRQAPGKGLEWVGFINSGGSTWYASWVKGRFTISRDDSKSIAYLQMNSLKTDDTATYFCARGYSTYYGDFNIWGQGTTVTVSS VL: DVVMTQSPSSLSASVGDRVTITCQASQSIDSNLAWFQQKPGKAPNLLIYRASNLASGVPSRFSGSGSGTEFTLTISSLQREDAATYYCLGGVGNVSYRTSFGQGTKVEIK', 'Kd', 'nM', 9),
  ('chimeric mAb R11 (antibody, V domains shown) VH: QSVKESEGDLVTPAGNLTLTCTASGSDINDYPISWVRQAPGKGLEWIGFINSGGSTWYASWVKGRFTISRTSTTVDLKMTSLTTDDTATYFCARGYSTYYGDFNIWGPGTLVTISS VL: ELVMTQTPSSTSGAVGGTVTINCQASQSIDSNLAWFQQKPGQPPTLLIYRASNLASGVPSRFSGSRSGTEYTLTISGVQREDAATYYCLGGVGNVSYRTSFGGGTEVVVK', 'Kd', 'nM', 3.4),
  ('chimeric mAb 2A2 (antibody, V domains shown) VH: QVQLQQSGAELVRPGASVTLSCKASGYTFSDYEMHWVIQTPVHGLEWIGAIDPETGGTAYNQKFKGKAILTADKSSSTAYMELRSLTSEDSAVYYCTGYYDYDSFTYWGQGTLVTVSA VL: DIVMTQSQKIMSTTVGDRVSITCKASQNVDAAVAWYQQKPGQSPKLLIYSASNRYTGVPDRFTGSGSGTDFTLTISNMQSEDLADYFCQQYDIYPYTFGGGTKLEIK', 'Kd', 'nM', 5.7),
  ('hu2A2-D16, humanized from 2A2 (antibody, V domains shown) VH: EVQLVESGAEVKKPGASVKVSCKASGYTFSDYEMHWVRQAPGQGLEWVGAIDPETGGTAYNQKFKGRVTMTRDTSTSTVYMELSSLRSEDTAVYYCTGYYDYDSFTYWGQGTLVTVSS VL: DIQMTQSPSSLSASVGDRVTITCKASQNVDAAVAWYQQKPGKAPKLLIYSASNRYTGIPTRFSGSGSGTDFTLTISSLQSEDLADYFCQQYDIYPYTFGQGTKVEIK', 'Kd', 'nM', 10.9),
  ('hu2A2b-Q11, humanized from 2A2 (antibody, V domains shown) VH: EVQLVQSGAEVKKPGASVKVSCKASGYTFSDYEMHWVRQAPGQGLEWLGAIDPETGGTAYNQKFKGRVTMTGDTSISTAYMELSRLTSDDTAVYYCTGYYDYDSFTYWGQGTLVSVSS VL: DIQMTQSPSSLSTSVGDRVTITCKASQNVDAAVAWYQQKPGKAPKLLIYSASNRYTGVASRFSGSGSGTDFTFTISSLQSEDLADYFCQQYDIYPYTFGQGTKLEIK', 'Kd', 'nM', 9.9);
